For each record, write down the corresponding MIC.
test system: Staphylococcus aureus; assay: Antimicrobial activity against methicillin-resistant Staphylococcus aureus; type: functional
Give bare numbers, in µg/mL.

Some solved cases for reference:
> print(dat)
                                 mol.smiles  quantitative.result
1  COC(=O)[C@H](Cc1c[nH]c2ccccc12)NSc1ccccc1[N+](=O)[O-]                 3.13
2     COC(=O)c1ccccc1SN1C(=O)C(=O)c2ccccc21                   50
3            O=C1C(=O)N(Sc2ccccc2)c2ccccc21                   50
4  O=C1C(=O)N(Sc2ccccc2[N+](=O)[O-])c2c(Br)cc(Br)cc21                   25
5    CCOC(=O)c1ccccc1SN1C(=O)C(=O)c2ccccc21                 12.5
6  O=C1C(=O)N(Sc2ccccc2[N+](=O)[O-])c2c(Br)cccc21                 12.5
7  CCOC(=O)CC[C@H](NSc1ccccc1[N+](=O)[O-])C(=O)OCC                   25
8  CCOC(=O)[C@H](Cc1c[nH]c2ccccc12)NSc1ccccc1[N+](=O)[O-]                 1.56

Here's the next entry for you.
QUERY: Request body: readout MIC, system Staphylococcus aureus, query COC(=O)CC[C@H](NSc1ccccc1[N+](=O)[O-])C(=O)OC . Return the value.
RESULT: 12.5

* * *

test system: Staphylococcus aureus; test: Antimicrobial activity against methicillin-resistant Staphylococcus aureus isolate 309-4; assay type: functional
READOUT: MBC

A selection of reference data follows.
COMPOUND	TARGET OR TEST SYSTEM	RESULT
O=[N+]([O-])c1ccc(S)cc1	Staphylococcus aureus	> 100 µg/mL
COC(=O)CC[C@H](NSc1ccc([N+](=O)[O-])cc1)C(=O)OC	Staphylococcus aureus	> 100 µg/mL
CCOC(=O)[C@H](Cc1c[nH]c2ccccc12)NSc1ccccc1[N+](=O)[O-]	Staphylococcus aureus	> 100 µg/mL
CN[C@H](CC(C)C)C(=O)N[C@H]1C(=O)N[C@@H](CC(N)=O)C(=O)N[C@H]2C(=O)N[C@H]3C(=O)N[C@H](C(=O)N[C@H](C(=O)O)c4cc(O)cc(O)c4-c4cc3ccc4O)[C@H](O)c3ccc(c(Cl)c3)Oc3cc2cc(c3O[C@@H]2O[C@H](CO)[C@@H](O)[C@H](O)[C@H]2O[C@H]2C[C@](C)(N)[C@H](O)[C@H](C)O2)Oc2ccc(cc2Cl)[C@H]1O [VANCOMYCIN]	Staphylococcus aureus	1 µg/mL

QUERY: Name the recorded MBC for CC(C)OC(=O)[C@H](Cc1c[nH]c2ccccc12)NSc1ccccc1[N+](=O)[O-] .
RESULT: > 100 µg/mL

* * *

Assignment: determine reported MIC for the given compounds.
tested on: Staphylococcus aureus; test: Antimicrobial activity against methicillin-resistant Staphylococcus aureus isolate 309-4; type: functional

Example cases with answers are listed next.
> print(dat)
                                 mol.smiles       result
1                  COC(=O)CC[C@H](N)C(=O)OC  > 100 µg/mL
2  CC(C)OC(=O)[C@H](Cc1c[nH]c2ccccc12)NSc1ccccc1[N+](=O)[O-]     25 µg/mL
3  CCOC(=O)[C@H](Cc1c[nH]c2ccccc12)NSc1ccccc1[N+](=O)[O-]   12.5 µg/mL
4                   O=[N+]([O-])c1ccc(S)cc1   1.56 µg/mL
5  O=C1C(=O)N(Sc2ccccc2[N+](=O)[O-])c2c(Cl)cccc21   12.5 µg/mL
6  COC(=O)[C@H](Cc1c[nH]c2ccccc12)NSc1ccccc1[N+](=O)[O-]     25 µg/mL
7        CCOC(=O)[C@@H](N)Cc1c[nH]c2ccccc12  > 100 µg/mL

QUERY: Value lookup for MIC; key = COC(=O)CC[C@H](NSc1ccc([N+](=O)[O-])cc1)C(=O)OC
RESULT: 6.25 µg/mL

Entry source: ChEMBL document CHEMBL2311326
